This collection of values is drawn from ChEMBL document CHEMBL4825779.

molecular target: Tyrosinase (Agaricus bisporus, UniProt O42713); test: Substrate activity at mushroom tyrosinase assessed as half-life of the compound by HPLC analysis; type: ADME
Sequence (O42713 whole entry): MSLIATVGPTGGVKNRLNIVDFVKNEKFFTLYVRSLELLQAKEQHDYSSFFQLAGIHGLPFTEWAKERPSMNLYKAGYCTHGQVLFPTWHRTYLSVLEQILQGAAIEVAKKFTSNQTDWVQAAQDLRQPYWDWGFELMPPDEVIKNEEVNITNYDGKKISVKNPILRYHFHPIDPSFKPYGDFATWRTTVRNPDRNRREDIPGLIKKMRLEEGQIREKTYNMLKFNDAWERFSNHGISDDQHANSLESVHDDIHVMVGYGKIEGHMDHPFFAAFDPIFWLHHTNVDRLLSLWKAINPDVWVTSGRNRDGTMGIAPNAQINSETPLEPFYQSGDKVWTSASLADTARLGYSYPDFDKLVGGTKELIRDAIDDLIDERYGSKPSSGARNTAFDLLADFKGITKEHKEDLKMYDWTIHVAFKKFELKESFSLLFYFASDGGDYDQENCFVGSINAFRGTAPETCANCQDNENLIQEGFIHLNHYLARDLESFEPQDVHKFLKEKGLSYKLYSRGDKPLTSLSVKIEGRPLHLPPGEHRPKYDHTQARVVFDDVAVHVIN
# binarize half-life: threshold 2 min inclusive, high side Criterion met, low side Criterion not met

smilesInput	targetUnderTest	categoryLabel
CN(/N=N/c1ccc(Br)cc1)C(=O)NCCSc1ccc(O)cc1	Tyrosinase (Agaricus bisporus, UniProt O42713)	Criterion not met
CCOC(=O)c1ccc(/N=N/N(C)C(=O)NCCSc2ccc(O)cc2)cc1	Tyrosinase (Agaricus bisporus, UniProt O42713)	Criterion met
CN(/N=N/c1ccc(Br)cc1)C(=O)CCSc1ccc(O)cc1	Tyrosinase (Agaricus bisporus, UniProt O42713)	Criterion met
CN(/N=N/c1ccc(C#N)cc1)C(=O)NCCSc1ccc(O)cc1	Tyrosinase (Agaricus bisporus, UniProt O42713)	Criterion not met
CC(=O)c1ccc(/N=N/N(C)C(=O)NCCSc2ccc(O)cc2)cc1	Tyrosinase (Agaricus bisporus, UniProt O42713)	Criterion not met
Cc1ccc(/N=N/N(C)C(=O)NCCSc2ccc(O)cc2)cc1	Tyrosinase (Agaricus bisporus, UniProt O42713)	Criterion not met
Cc1ccc(/N=N/N(C)C(=O)CCSc2ccc(O)cc2)cc1	Tyrosinase (Agaricus bisporus, UniProt O42713)	Criterion met

---

assay: 1-Octanol/phosphate buffer apparent partition coefficient, logP of the compound measured after 30 mins by HPLC analysis; format: physicochemical
Measured logD at 0.5 h, listed per entry.
parameter: logD at 0.5 h

smilesInput	resultValue
Cc1ccc(/N=N/N(C)C(=O)NCCSc2ccc(O)cc2)cc1	4.21
CN(/N=N/c1ccc(C#N)cc1)C(=O)NCCSc1ccc(O)cc1	3.49
CCOC(=O)c1ccc(/N=N/N(C)C(=O)NCCSc2ccc(O)cc2)cc1	4.08
CC(=O)c1ccc(/N=N/N(C)C(=O)NCCSc2ccc(O)cc2)cc1	3.44
CN(/N=N/c1ccc(Br)cc1)C(=O)NCCSc1ccc(O)cc1	3.95
